Listed below: TGI values for each entry.
tested on: SNB-75 CNS; test: NCI tumour cell line growth inhibition, 48 h
assay-readout: TGI

CC(=O)N/C(=C\c1cccc([N+](=O)[O-])c1)c1nc2c3c(ccc2[nH]1)C(=O)c1ccccc1C3=O = > 100 µM
Cc1cc(I)cc(CN(C)CCN2CCCC2)c1O = 47.2 µM
O=C(C1C(c2ccccc2)N1C(c1ccccc1)c1ccccc1)C1C(c2ccccc2)N1C(c1ccccc1)c1ccccc1 (stereo not drawn) = > 100 µM
CCc1nc(N)nc(C(=O)NCCNC(=O)c2nc(N)nc(CC)c2C)c1C = > 100 µM
CCC1=CC2Cc3nc4cc(Cl)ccc4c(N)c3C(C1)C2 (stereo not drawn) = 18.5 µM
CC1=NN(c2nc(N)nc(CSCc3nc(N)nc(N(C)C)n3)n2)C(C)(C)C1 = > 100 µM
O=[N+]([O-])c1ccc(N=Nc2c(O)ccc3ccccc23)cc1 = > 100 µM
CC1(C)CC(n2cnc(-c3ccc(F)cc3)c2-c2ccnc(N)n2)CC(C)(C)N1 = > 25 µM

* * *

Listed below: TGI values for each entry.
tested on: U251 CNS; experiment: NCI tumour cell line growth inhibition, 48 h
assay-readout: TGI

CCCCCC(CO)C(O)(C(F)(F)F)C(F)(F)F (stereo not given) = > 10 µM
Cc1ccc(NC(=O)CCC/C(CC(=O)c2ccc(Br)cc2)=N/NC(=O)CC#N)cc1 = > 100 µM
Cc1ccc(SCC(CF)OCn2cc(F)c(=O)[nH]c2=O)cc1 (stereo not given) = > 100 µM
CCCCCCCCCCCCC(O)C1CCC(C(O)CCCCCCC(O)CCCCCCCC2=CC(C)OC2=O)O1 (stereo not given) = > 100 µM
N#CC(Nc1ccccc1)c1ccc(C(C#N)Nc2ccccc2)cc1 (stereo not given) = > 100 µM
Cc1cc(C)nc(NS(=O)(=O)c2ccc(Nc3c4ccc(Cl)cc4nc4c(C(=O)Nc5ccc(S(=O)(=O)N=C(N)N)cc5)cccc34)cc2)n1 = > 100 µM
Cc1ccc(Nc2nc(N)nc3c2ncn3C2OC(CO)C(O)C2O)cc1 (stereo not given) = > 100 µM
CCOC(=O)C1C(c2ccc(OC)cc2)c2c([nH][nH]c2=O)CC1(O)OCC (stereo not given) = > 100 µM
COC(=O)c1ccc(N=NN(C)COc2ccc([N+](=O)[O-])cc2)cc1 = > 100 µM
O=C(O)C1Cc2c([nH]c3ccccc23)C=N1 (stereo not given) = > 100 µM
CCOC(=O)c1c(-c2ccc(O)c(OC)c2)c(C#N)c(=S)n(C2OC(COC(C)=O)C(OC(C)=O)C(OC(C)=O)C2OC(C)=O)c1-c1ccccc1 (stereo not given) = > 100 µM
O=c1[nH]nc(Cc2ccccc2)n1/N=C/c1ccccc1Cl = > 100 µM
O=C1NC(=S)NC(=O)C1=Cc1cccc2cc3ccccc3cc12 = 3.36 µM
CCCCCCCCCCC(O)C1CCC(C(O)CCC(O)C2CCC(CCCCCCC[C@H](O)CC3=C[C@@H](C)OC3=O)O2)O1 (stereo not given in full) = > 100 µM
C[C@]12CC[C@H](OCCC#N)CC1=CC[C@@H]1C2CC[C@]2(C)/C(=N/OCCC#N)CCC12 (stereo not given in full) = > 100 µM
Cn1c(NS(=O)(=O)c2ccccc2)nc2ccccc21 = > 100 µM
Cc1cccc(C)c1NC(=S)NC=C(C(N)=O)C(N)=O = > 100 µM
CCN(CC)CCNC(=O)c1nn(C)c(=S)[nH]c1=S = > 100 µM
CC1=NN(c2nc(N)nc(CSCc3nc(N)nc(N(C)C)n3)n2)C(C)(C)C1 = > 100 µM
O=[N+]([O-])c1ccc(Nc2nc3ccccc3s2)cc1 = 39.3 µM

* * *

Listed below: log10 TGI values for each entry.
test system: COLO 205 colon; test: NCI tumour cell line growth inhibition, 48 h
assay-readout: log10 TGI (log10 of the value in µM)

COc1cccc(-c2nc3sccn3c2-c2ccnc(NCCNS(=O)(=O)c3ccccc3)c2)c1 = 1.26
CCOc1ccc(Nc2nc(-c3ccc4c(c3)NC(=O)CO4)cs2)cc1 = 1.53
COc1cc2c(Oc3ccc4[nH]c(C)cc4c3F)ccnc2cc1OCC1(N)CC1 = 0.75
C=CCN1C=CC(=O)[C@H](O[Si](C)(C)C(C)(C)C)[C@@H]1/C=C/c1ccccc1 = 1.21
CCC[CH2][Sn]([CH2]CCC)([O]C(=O)C(N)CSC)[O]C(=O)C(N)CSC (stereo unspecified) = 1.30
Cc1cc(NCCCCCCCCCC[n+]2c(C)cc(N)c3ccccc32)c2ccccc2n1 = 0.09
N#Cc1c(Cl)c2ccccc2n2c1nc1ccccc12 = 1.62
CCN=c1cc2sc3cc(NCC)c(C)cc3nc-2cc1C = 0.89
O=C(N/N=C/c1ccccc1Cl)c1ccccc1Nc1ccnc(C(F)(F)F)c1 = 0.51
CCN(CC)C(=S)SNCc1ccc(S(N)(=O)=O)cc1 = 1.44
NC(N)=N/N=C/c1c(-c2ccc([N+](=O)[O-])cc2)nc2n1CCS2 = 0.89
c1cn2cc(-c3ccc4ncn(C5CCCCC5)c4c3)nc(-c3ccc4c(c3)ncn4C3CCCCC3)c2n1 = 0.58
Cc1ccc(C(=O)C(Cl)C(Cl)c2ccc(C)cc2)cc1 (stereo unspecified) = 0.61

* * *

tested on: NCI-H522 lung; assay: NCI tumour cell line growth inhibition, 48 h
Listed below: TGI values for each entry.
assay-readout: TGI (µM)

CCC1=CC2Cc3nc4cc(Cl)ccc4c(N)c3C(C1)C2 (stereo not given) = 16.1
Nc1cc(-c2cccc(OC(F)(F)F)c2)nc2ccc(N3CCCC3)cc12 = 0.986
COc1cccc(-c2nc3sccn3c2-c2ccnc(NCCNS(=O)(=O)c3ccccc3)c2)c1 = 27.6

* * *

Listed below: TGI values for each entry.
system: ACHN renal; assay: NCI tumour cell line growth inhibition, 48 h
assay-readout: TGI

Cc1ccc(NC(=O)CC(=O)n2nc(-c3ccccc3)c(N=Nc3ccccc3Cl)c2-c2ccccc2)cc1 = > 100 µM
COc1ccc(C(c2c[nH]c3ccc(Br)cc23)c2c[nH]c3ccc(Br)cc23)cc1 = 0.845 µM
COc1ccc(-c2nc3ncccn3c2/C=C/C(=O)c2cc(OC)c(OC)c(OC)c2)cc1 = 3.17 µM
CC(=O)OC1COC(n2c(-c3ccc(Cl)cc3)cc(-c3ccccc3)c(C#N)c2=S)C(OC(C)=O)C1OC(C)=O (configuration not stated) = > 31.6 µM
CCOC(=O)NC(=O)c1cn(CCCOC(=O)CCCCCCCCCCC(=O)OCCCn2cc(C(=O)NC(=O)OCC)c(=O)n(C)c2=O)c(=O)n(C)c1=O = > 100 µM
CCOC(=O)c1c(-c2ccc(O)c(OC)c2)c(C#N)c(=S)n(C2OC(COC(C)=O)C(OC(C)=O)C(OC(C)=O)C2OC(C)=O)c1-c1ccccc1 (configuration not stated) = > 100 µM
COC(=O)C1=C(\c2ccccc2)c2ccccc2C(=O)N(C2CCCCC2)/C=C\1 = > 100 µM
O=[N+]([O-])c1ccc(N=Nc2c(O)ccc3ccccc23)cc1 = > 100 µM
Cc1ccc(NC(=O)CCC/C(CC(=O)c2ccc(Br)cc2)=N/NC(=O)CC#N)cc1 = > 100 µM
C[C@@H]1N=C(c2ccc(Br)cc2)Nc2nc3ccccn3c2C1=O = > 100 µM
O=C(O)CC12C3C4C5C3C1C5C42 (configuration not stated) = > 100 µM
NC1=NN(c2ccccc2)C2(O)c3ccncc3C3=NN(c4ccccc4)C(=O)C132 (configuration not stated) = > 100 µM
COc1ccc2c(c1)CCc1[nH]c3ccccc3c1CCCC2 = > 10 µM
CC[O-].CC[O-].O=C1C(c2ccccc2)=C([O-])c2ccccc21.O=C1C(c2ccccc2)=C([O-])c2ccccc21.[Ti+4] = > 100 µM
O=c1cc(CBr)c2ccc(O)cc2o1 = > 100 µM
C(=NCc1ccccc1)c1ccccc1-c1ccccc1C=NCc1ccccc1 = > 10 µM
COc1cc(NP(=O)(Oc2ccccc2)Oc2ccccc2)ccc1Nc1c2ccccc2nc2c1[nH]c1ccccc12 = 11.9 µM
O=C(c1ccco1)N(C(=S)N1CCN(c2ccccn2)CC1)C1CCCCC1 = > 100 µM
CCCn1c(SCC)c2cc3cc4ccccc4cc3cc2c1-c1nc(F)nc(F)n1 = > 100 µM
N#Cc1c(Cl)/c(=C/O)c(=O)n2c1nc1ccccc12 = > 100 µM
O=C(Nc1ccc(F)cc1)C(=O)C(C1OC(=O)c2ccccc21)[N+](=O)[O-] (configuration not stated) = > 100 µM
O=C1NC(=S)NC(=O)C1=Cc1cccc2cc3ccccc3cc12 = 3.51 µM
C=CCN1C=CC(=O)[C@H](O[Si](C)(C)C(C)(C)C)[C@@H]1/C=C/c1ccccc1 = 29.2 µM
Cc1ccc(SCC(CF)OCn2cc(F)c(=O)[nH]c2=O)cc1 (configuration not stated) = > 100 µM
O=C(CC12CC3CC(CC(C3)C1)C2)NCCOCCOCCOCCNC(=O)c1cc2c(o1)C(=O)c1ccccc1C2=O = 3.12 µM
O=S(=O)(c1ccc(N=C2NN=C(c3c[nH]c4ccccc34)CS2)cc1)N1CCOCC1 = > 100 µM
O=c1c2cccnc2cc(-c2ccccc2)n1CCO = > 100 µM
COc1cccc2c(Nc3ccc(S(=O)(=O)NC(C)=O)cc3)c3ccc([N+](=O)[O-])cc3nc12 = > 100 µM
CNn1c(C)n[nH]c1=O = > 100 µM
CCCCCCCCC/C=C1\CC(CO)(COC(=O)C2CCCCC2)OC1=O (configuration not stated) = 69.1 µM
CCC(=O)NC(Nc1ccc(O)cc1)(C(F)(F)F)C(F)(F)F = > 100 µM
C=CCC(C(=O)O)c1ccccc1 (configuration not stated) = > 100 µM
O=C1CCC2CCC1C2 (configuration not stated) = > 100 µM
O=C1c2ccccc2C2=Nc3ccncc3CN12 = > 100 µM
CC(=O)NC1C(O)C(O)C(CO)OC1n1ncc(=O)[nH]c1=O (configuration not stated) = > 100 µM
O=C(O)c1ccc(Nc2nc3ccccc3nc2-c2cccs2)cc1 = > 100 µM
COC(=O)C12CC3CC(C1)CC(C(=O)OC)(C3)C2 = > 100 µM
Cc1ccc(Nc2nc(N)nc3c2ncn3C2OC(CO)C(O)C2O)cc1 (configuration not stated) = > 100 µM
CCOc1ccc(Nc2nc(-c3ccc4c(c3)NC(=O)CO4)cs2)cc1 = > 100 µM
CC(=O)/C(=C\C1=CCCO1)C(=O)Nc1ccccc1C = > 100 µM
COc1cc(C(c2cc3c(cc2O)OCO3)N2CCCCC2)cc(OC)c1OC (configuration not stated) = 31.1 µM
NNc1nc2ccccc2s1 = > 100 µM
